- experimental-target: r-P2Y6 (Rattus norvegicus, UniProt Q63371)
- Construct: host or cells: human 1321N1 astrocytoma cells, stably transfected
- Sequence (Q63371 whole entry): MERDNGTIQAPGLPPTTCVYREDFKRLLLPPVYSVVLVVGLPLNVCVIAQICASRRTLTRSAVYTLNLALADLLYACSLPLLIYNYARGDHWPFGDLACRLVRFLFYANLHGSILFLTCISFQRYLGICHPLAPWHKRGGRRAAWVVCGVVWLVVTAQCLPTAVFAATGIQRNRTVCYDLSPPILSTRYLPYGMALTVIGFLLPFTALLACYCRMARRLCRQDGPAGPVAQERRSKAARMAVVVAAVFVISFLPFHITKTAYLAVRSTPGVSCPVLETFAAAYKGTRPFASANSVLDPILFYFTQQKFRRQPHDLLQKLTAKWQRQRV
- method: Calcium mobilization assay, r-P2Y6 transfected 1321N1 astrocytoma cells
- Assay type: cell-based
- experimental-setup: 1321-N1; final conc of 100 μM; 100 μM of UDP
Rule: inhibition at 100 µM of 40% or more gives criterion met; anything lower gives criterion not met.

Use the examples below as a reference point.
compound: O=C(NS(=O)(=O)c1ccc(-c2ccccc2)cc1)n1c(Cl)nc2ccccc21 [1r]
experimental-target: r-P2Y6 (Rattus norvegicus, UniProt Q63371)
cat: criterion not met
--
compound: O=C(NS(=O)(=O)c1ccccc1)n1c(-c2ccccc2)nc2ccccc21 [1m]
experimental-target: r-P2Y6 (Rattus norvegicus, UniProt Q63371)
cat: criterion not met
--
compound: COc1nc2ccccc2n1C(=O)NS(=O)(=O)c1ccc(Cl)cc1 [1v]
experimental-target: r-P2Y6 (Rattus norvegicus, UniProt Q63371)
cat: criterion not met

Then this compound:
Exercise: Could you please find out whether O=C(NS(=O)(=O)c1ccccc1)n1c(Cl)nc2ccccc21 [1q] has inhibition at 100 µM that meets 40% or exceeds it?
Solution: criterion met

----------
- method: MTT assay, HEK-293
- Type: cell-based
- experimental-setup: human, HEK-293 cells; at 50 µM; triplicate; read-out: HEK-293 Cell Line (%cytotoxicity ±SEM)
Rule: cytotoxicity at 24 h, 50 µM of 30% or more gives label 1; anything lower gives label 0.

Exercise: Given the entry "O=C(NS(=O)(=O)c1ccc(Cl)cc1)n1c(-c2ccccc2)nc2ccccc21" , answer whether its cytotoxicity at 24 h, 50 µM meets or surpasses 30%.
Solution: label 1

Exercise: Assess whether reported cytotoxicity at 24 h, 50 µM for "COc1ccc(S(=O)(=O)NC(=O)n2c(OC)nc3ccccc32)cc1" sits at 30% or higher.
Solution: label 1

Exercise: Hi team, for "COc1nc2ccccc2n1C(=O)NS(=O)(=O)c1ccc(Cl)cc1" , is the recorded cytotoxicity at 24 h, 50 µM at or above 30%?
Solution: label 0

Exercise: Assess whether reported cytotoxicity at 24 h, 50 µM for "Nc1nc2cc(Cl)ccc2n1C(=O)NS(=O)(=O)c1ccc([N+](=O)[O-])cc1" sits at 30% or higher.
Solution: label 0

Exercise: Test whether the compound "Cc1ccc([N+](=O)[O-])cc1S(=O)(=O)NC(=O)n1c(N)nc2cc(Cl)ccc21" records cytotoxicity at 24 h, 50 µM of 30% or higher.
Solution: label 1

Exercise: Could you please find out whether "Cc1ccc([N+](=O)[O-])cc1S(=O)(=O)NC(=O)n1c(N)nc2cc([N+](=O)[O-])ccc21" has cytotoxicity at 24 h, 50 µM that meets 30% or exceeds it?
Solution: label 0

Exercise: For this compound, is measured cytotoxicity at 24 h, 50 µM 30% or higher? "Cc1ccc([N+](=O)[O-])cc1S(=O)(=O)NC(=O)n1c(N)nc2ccccc21"
Solution: label 0

Exercise: Please tell me: is the compound "O=C(NS(=O)(=O)c1ccc(-c2ccccc2)cc1)n1c(Cl)nc2ccccc21" at or over 30% in terms of cytotoxicity at 24 h, 50 µM?
Solution: label 1

Exercise: Quick check: does "Cc1ccc(S(=O)(=O)NC(=O)n2c(N)nc3ccccc32)cc1" have cytotoxicity at 24 h, 50 µM greater than or equal to 30%?
Solution: label 0

Exercise: Does cytotoxicity at 24 h, 50 µM meet or surpass 30% for "O=C(NS(=O)(=O)c1ccccc1)n1c(-c2ccccc2)nc2ccccc21" ?
Solution: label 1

Exercise: Quick check, cytotoxicity at 24 h, 50 µM >= 30%? "Nc1nc2ccccc2n1C(=O)NS(=O)(=O)c1ccc(-c2ccccc2)cc1"
Solution: label 1

Exercise: Form field: cytotoxicity at 24 h, 50 µM at least 30%? Entry: "COc1ccc(S(=O)(=O)NC(=O)n2c(Cl)nc3ccccc32)cc1"
Solution: label 0

Exercise: Record "Cc1ccc(S(=O)(=O)NC(=O)n2c(N)nc3cc(Cl)ccc32)cc1" ; criterion: cytotoxicity at 24 h, 50 µM no lower than 30%. Met?
Solution: label 1

Exercise: Is cytotoxicity at 24 h, 50 µM for "O=C(NS(=O)(=O)c1ccc(Cl)cc1)n1c(Cl)nc2ccccc21" at or above 30%?
Solution: label 0

Exercise: Hello, I need to know if "Nc1nc2cc([N+](=O)[O-])ccc2n1C(=O)NS(=O)(=O)c1cc(Cl)cc(Cl)c1O" has measured cytotoxicity at 24 h, 50 µM not below 30%. Thanks!
Solution: label 0

Exercise: Evaluate Cc1ccc(C(=O)Nc2ccc(S(=O)(=O)O)c3cc(S(=O)(=O)O)cc(S(=O)(=O)O)c23)cc1NC(=O)c1cccc(NC(=O)Nc2cccc(C(=O)Nc3cc(C(=O)Nc4ccc(S(=O)(=O)O)c5cc(S(=O)(=O)O)cc(S(=O)(=O)O)c45)ccc3C)c2)c1 [Suramin, reference compound] : cytotoxicity at 24 h, 50 µM at minimum 30%?
Solution: label 0

Exercise: Given "Nc1nc2ccccc2n1C(=O)NS(=O)(=O)c1cc(Cl)cc(Cl)c1O" , state whether its cytotoxicity at 24 h, 50 µM is at least 30%.
Solution: label 0

Exercise: Could you verify whether the entry "Nc1nc2cc(Cl)ccc2n1C(=O)NS(=O)(=O)c1cc(Cl)cc(Cl)c1O" shows cytotoxicity at 24 h, 50 µM of no less than 30%?
Solution: label 0

Exercise: Evaluate "Nc1nc2cc(Cl)ccc2n1C(=O)NS(=O)(=O)c1ccc(Cl)cc1" : cytotoxicity at 24 h, 50 µM at minimum 30%?
Solution: label 1
